Every entry's value here was drawn from patent US20170081400A1.

tested on: T1, human TL1A extracellular domain with N-terminal HIS and FLAG tag (human, UniProt O95150 72-251)
T1 construct: the whole entry is named; also called TNFSF15
T1 sequence: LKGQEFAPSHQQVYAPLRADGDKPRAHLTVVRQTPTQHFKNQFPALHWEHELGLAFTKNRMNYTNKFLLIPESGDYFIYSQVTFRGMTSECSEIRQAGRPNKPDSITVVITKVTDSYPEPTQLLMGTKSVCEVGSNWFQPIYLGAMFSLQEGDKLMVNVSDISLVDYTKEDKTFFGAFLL
assay method text: SPR Run 9, antibody on Protein A, TL1A 5 ug/mL, timepoint 44
Parameter TL1A Binding Level (Early): see the listing below.
Numeric answer only, unit RU assumed.

binder	value units	TL1A Binding Level (Early)
320-614 (antibody, human IgG1, name in Kabat numbering, V domains shown, full-length human IgG1, lambda) VH: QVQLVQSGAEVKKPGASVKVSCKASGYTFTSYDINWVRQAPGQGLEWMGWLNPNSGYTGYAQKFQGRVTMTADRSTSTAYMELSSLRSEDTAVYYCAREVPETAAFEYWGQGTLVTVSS VL: QSVLTQPPSVSGAPGQRVTISCTSSSSDIGAGLGVHWYQQLPGTAPKLLIEGYYNRPSGVPDRFSGSKSGTSASLTITGLLPEDEGDYYCQSYDKTLSALFGGGTKLTVLG	RU	122
320-603 (antibody, human IgG1, name in Kabat numbering, V domains shown, full-length human IgG1, lambda) VH: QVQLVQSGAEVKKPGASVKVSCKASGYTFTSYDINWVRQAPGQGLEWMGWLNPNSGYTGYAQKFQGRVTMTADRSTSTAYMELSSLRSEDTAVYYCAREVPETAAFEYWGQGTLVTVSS VL: QSVLTQPPSVSGAPGQRVTISCTSSSSDIGAGLGVLWYQQLPGTAPKLLIEGYYNRPSGVPDRFSGSKSGTSASLTITGLLPEDEGDYYCQSFDGTLSALFGGGTKLTVLG	RU	126

Problem: State its TL1A Binding Level (Early) for this binder: 320-596 (antibody, human IgG1, name in Kabat numbering, V domains shown, full-length human IgG1, lambda) VH: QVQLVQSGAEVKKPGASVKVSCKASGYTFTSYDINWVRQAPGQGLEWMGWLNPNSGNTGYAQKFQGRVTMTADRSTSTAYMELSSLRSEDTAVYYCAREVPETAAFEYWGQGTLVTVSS VL: QSVLTQPPSVSGAPGQRVTISCTSSSSDIGAGLGVHWYQQLPGTAPKLLIEGYYNRPSGVPDRFSGSKSGTSASLTITGLLPEDEGDYYCQSFDGTLSALFGGGTKLTVLG
Solution: 95
